Assay: CREB reporter modulators without forskolin, primary screen, cell-based, PC12, CRE-LacZ reporter, unstimulated (AID 1145)
Details: no forskolin, luminescence, 4.5 h, higher = more signal, called active from +8 up or from −8 down
endpoint_name: z-score
API doc: respond with a numeric literal and nothing else, no unit.

Here's what some known entries look like.
>  <molecule>
C=CCC(OC(C)=O)[C@@H]1[C@@H](N(Cc2cccc3ccccc23)C(=O)Cc2ccc(F)cc2)c2cc(OCCCO)ccc2N1C(=O)Cc1ccc2ccccc2c1 (stereo partly drawn)

>  <z-score>
-0.36

$$$$
>  <molecule>
NC(=O)NCC#Cc1ccc2c(c1)[C@]1(C(=O)N2)[C@H](C(N)=O)[C@H]2C(=O)O[C@H](c3ccccc3)[C@H](c3ccccc3)N2[C@@H]1c1ccccc1OCCO

>  <z-score>
0.918

$$$$

We now examine a further molecule.
In: Identify the reported z-score for the following entry. "CCOC(=O)C1=CC[C@@H](c2ccc(-c3ccc(OCc4ccccc4)cc3)c(OC)c2)N(S(=O)(=O)c2ccc(C)cc2)[C@H]1c1ccccc1"
Out: -0.489
